What Kd was measured for each of the following?
measured.on: T1, human CD39 (ectonucleoside triphosphate diphosphohydrolase 1) (UniProt P49961 1-510)
T1 chain: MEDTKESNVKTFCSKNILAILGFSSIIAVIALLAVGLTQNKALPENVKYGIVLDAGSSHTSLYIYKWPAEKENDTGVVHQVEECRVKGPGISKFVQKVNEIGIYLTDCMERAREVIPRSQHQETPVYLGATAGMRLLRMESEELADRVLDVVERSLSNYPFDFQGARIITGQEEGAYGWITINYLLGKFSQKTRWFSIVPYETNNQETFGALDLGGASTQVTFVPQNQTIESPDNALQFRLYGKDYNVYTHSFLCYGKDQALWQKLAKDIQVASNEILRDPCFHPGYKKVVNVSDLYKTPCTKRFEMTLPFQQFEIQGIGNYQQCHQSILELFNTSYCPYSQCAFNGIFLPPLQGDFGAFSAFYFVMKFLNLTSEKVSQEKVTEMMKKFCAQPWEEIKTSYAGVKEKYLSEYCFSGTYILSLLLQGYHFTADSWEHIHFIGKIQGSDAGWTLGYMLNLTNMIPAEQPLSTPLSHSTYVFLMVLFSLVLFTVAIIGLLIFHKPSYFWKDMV
run.description: ForteBio (BLI); IgG, monovalent
The reply should contain only the number, in nM.

Requested read-out: Kd. Entry: SRF370-C (antibody, V domains shown) VH: QVQLVQSGAEVKKPGSSVKVSCKASGGTFSTYAIGWVRQAPGQGLEWMGGIIPAFGTANYAQKFQGRVTITADESTSTAYMELSSLRSEDTAVYYCARDPVRRSPFDIWGQGTMVTVSS VL: EIVLTQSPATLSLSPGERATLSCRASQSVSSYLAWYQQKPGQAPRLLIYDSSNRATGIPARFSGSGSGTDFTLTISSLEPEDFAVYYCQQSFLWPRTFGGGTKVEIKR
2.59

Requested read-out: Kd. Entry: SRF360-C (antibody, V domains shown) VH: EVQLVESGGGLVKPGGSLRLSCAASGFTFSSYRMNWVRQAPGKGLEWVSSISSSSSSIWYADSVKGRFTISRDNAKNSLYLQMNSLRAEDTAVYYCAKGPRYDSSGYRWRYGMDVWGQGTTVTVSS VL: DIQMTQSPSSLSASVGDRVTITCRASQSISSYLNWYQQKPGKAPKLLIYAASSLQSGVPSRFSGSGSGTDFTLTISSLQPEDFATYYCQQLYVDPPWTFGGGTKVEIKR
0.772

Requested read-out: Kd. Entry: SRF367-C (antibody, V domains shown) VH: QVQLVQSGAEVKKPGSSVKVSCKASGGTFSSEGISWVRQAPGQGLEWMGSILPIFGTANYAQKFQGRVTITADESTSTAYMELSSLRSEDTAVYYCAREAGYYRYRYFDLWGKGTLVTVSS VL: EIVMTQSPATLSVSPGERATLSCRASQSVSSNLAWYQQKPGQAPRLLIYGASTRATGIPARFSGSGSGTEFTLTISSLQSEDFAVYYCQQHALWPLTFGGGTKVEIKR
1.57

Reference for the values: patent US20200399394A1
